- Test system: Plutella xylostella (Diamond Back Moth)
- ASSAY_TEXT: Example B7: Activity against Plutella xylostella, artificial diet
- Assay type: in vivo
- RUN_PARAMETERS: 120 h, application rate of 200 ppm, L2 larvae, 5 days after infestation, read-out: effect in at least one of the two categories (mortality or growth inhibition)
Listing of recorded percent effect (mortality or growth inhibition) at 200 ppm by entry.
RECORDED_METRIC: percent effect (mortality or growth inhibition) at 200 ppm

1. CCS(=O)(=O)c1cc(C(F)(F)F)cnc1-n1cc2cnc(C(F)(F)F)cc2n1: ≥ 80%
2. CCS(=O)(=O)c1cc(Br)cnc1-n1cc2cnc(C(F)(F)F)cc2n1: ≥ 80%
3. CCSc1cccnc1-n1cc2cnc(C(F)(F)F)cc2n1: ≥ 80%
